Value source: PubChem BioAssay AID2060607

Test system: 876862-298-R-J1-PDC complex spheroids, viability % test/control;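 further: spheroids exposed to drugs for 7 days before readout; 100% = DMSO vehicle control wells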
Test: Anticancer human tumor 876862-298-R-J1-PDC patient-derived endometrial carcinoma cell line growth inhibition [CLK]
Conditions: second compound 0.316 µM; first compound 0.3 µM; stronger effect = lower value
Consider the cut-off 1%. If the recorded viability, T/C is strictly smaller, the label is 1; if not, the label is 0.

# compound, answer label
measured = [
    ("CC(C)CC(NC(=O)C(Cc1ccccc1)NC(=O)c1cnccn1)B(O)O (stereo unspecified) + CN1CCN(c2cc(C(=O)Nc3cc4cc(-c5cnn(C)c5)ccc4cn3)ccn2)CC1", 1),
    ("C=CC(=O)Nc1cc(Nc2nccc(-c3cn(C)c4ccccc34)n2)c(OC)cc1N(C)CCN(C)C + CN1CCN(c2cc(C(=O)Nc3cc4cc(-c5cnn(C)c5)ccc4cn3)ccn2)CC1", 0),
    ("C=CC(=O)Nc1cc(Nc2nccc(-c3cn(C)c4ccccc34)n2)c(OC)cc1N(C)CCN(C)C + CNC(=O)c1ccc(Nc2nc(OC3CCCC3)c3c(-c4ccc5nc(C)oc5c4)c[nH]c3n2)c(OC)c1", 0),
    ("NC(=O)C(=Cn1cnc(-c2cc(C(F)(F)F)cc(C(F)(F)F)c2)n1)c1cncnc1 + CNC(=O)c1ccc(Nc2nc(OC3CCCC3)c3c(-c4ccc5nc(C)oc5c4)c[nH]c3n2)c(OC)c1", 0),
    ("CC(C)CC(NC(=O)C(Cc1ccccc1)NC(=O)c1cnccn1)B(O)O (stereo unspecified) + CNC(=O)c1ccc(Nc2nc(OC3CCCC3)c3c(-c4ccc5nc(C)oc5c4)c[nH]c3n2)c(OC)c1", 1),
]
